FYI, the data here is from PubChem BioAssay.

- experiment-summary: inhibitors of hydroxyurea-induced Chk1 phosphorylation, primary screen, imaging, HeLa, phospho-Chk1 nuclear intensity (AID 1187); further: test concentration not given here
- study-conditions: hydroxyurea-induced phospho-Chk1 immunofluorescence imaging, higher = more signal
reported-endpoint: z-score
Lab note: write the figure by itself, no unit.

Inquiry: Given O=C1OCCC/C=C\[C@H]2OC34C=CCN(Cc5ccccc5)C(=O)[C@H]3N(CCCCCCO)C(=O)[C@@H]4C12 (some centres not stated) , state its recorded z-score.
Reply text: 0.0626

Inquiry: How about `[N-]=[N+]=Nc1ccccc1C[C@@]1(C(=O)NCCN2CCOCC2)N=C(c2ccc(OCCCO)cc2)O[C@@H]1c1ccccc1` ?
Reply text: -1.11

Inquiry: Likewise for `COCCCN1C(=O)[C@@]2(c3ccc([N+](=O)[O-])cc3)CC(=O)N(C3CCCCC3)[C@@H]2c2ccc(CO)cc21` ?
Reply text: 0.133

Inquiry: Lookup `COCCOC(=O)N1C(=O)[C@@]2(c3ccccc31)[C@H](c1ccc(O)cc1)N1[C@H](c3ccccc3)[C@H](c3ccccc3)OC(=O)[C@H]1[C@@H]2C(=O)NC[C@H](O)c1ccccc1`
Reply text: -0.211

Inquiry: And the next one, O=C1NC(=O)C2C1C=CC(C(O)c1ccccc1)N2Nc1ccc(Cl)cc1Cl (configuration not stated) ?
Reply text: -0.621

Inquiry: Another compound: `COCCOC(=O)N1C(=O)[C@@]2(c3cc(C#CCCO)ccc31)[C@H](C(=O)N1CCc3cc(OC)c(OC)cc3C1)[C@H]1C(=O)O[C@H](c3ccccc3)[C@H](c3ccccc3)N1[C@@H]2c1ccc(O)cc1`
Reply text: -0.656

Inquiry: Now this one: `COc1ccc([Si](C)(C)[C@H]2[C@H](CC(=O)N3Cc4ccccc4C[C@H]3CO)O[C@@]3(C(=O)N(Cc4ccc(N5CCC5=O)cc4)c4ccccc43)[C@@H]2C)cc1`
Reply text: -0.0862
